Test system: MRSA (ATCC BAA-1556)
Test: microbe, parasite or virus in culture
Type: cell-based, Methicillin-Resistant Staphylococcus aureus
Conditions: ATCC BAA-1556, 24 h
Description: The antibacterial activity of all ten synthesized linear and cyclic peptides was evaluated against MRSA (ATCC BAA-1556), S. aureus (ATCC 29213), E. faecium (ATCC 700221), S. pneumoniae (ATCC 51938), E. faecalis (ATCC 29212), B. subtilis (ATCC-6633), K. pneumoniae (ATCC BAA-1705), P. aeruginosa (ATCC 27883), and E. coli (ATCC 25922). […] The MIC was determined by micro-broth dilution protocol, where the minimal concentrations were determined to be in wells with no visible bacterial growth. […]
Non-standard residues stand in square brackets, D forms with d. Residues, ends and D or L forms follow the SMILES beside them. Dip = N[C@H](C(=O)O)C(c1ccccc1)c1ccccc1
measuredAttribute: MIC
Kindly format the answer as number then unit.

[
  {
    "compound": "CCCCCCCCCC(=O)N[C@@H](Cc1c[nH]c2ccccc12)C(=O)N[C@H](CC(N)=O)C(=O)N[C@@H](CC(=O)O)C(=O)N[C@@H]1C(=O)NCC(=O)N[C@@H](CCCN)C(=O)N[C@@H](CC(=O)O)C(=O)N[C@H](C)C(=O)N[C@@H](CC(=O)O)C(=O)NCC(=O)N[C@H](CO)C(=O)N[C@@H]([C@H](C)CC(=O)O)C(=O)N[C@@H](CC(=O)c2ccccc2N)C(=O)O[C@@H]1C [Daptomycin, reference compound]",
    "result": "1.2 µM"
  },
  {
    "compound": "N=C(N)NCCC[C@@H]1NC(=O)[C@H](Cc2c[nH]c3ccccc23)NC(=O)[C@H](CCCNC(=N)N)NC(=O)[C@H](C(c2ccccc2)c2ccccc2)NC(=O)[C@H](CCCNC(=N)N)NC(=O)[C@H](C(c2ccccc2)c2ccccc2)NC(=O)[C@H](CCCNC(=N)N)NC(=O)[C@H](C(c2ccccc2)c2ccccc2)NC(=O)[C@H](CCCNC(=N)N)NC(=O)[C@H](C(c2ccccc2)c2ccccc2)NC1=O [[(DipR)4(WR)]] (cyclo([Dip]R[Dip]R[Dip]R[Dip]RWR))",
    "result": "3.1 µM"
  }
]

Continue with the compound presented below.
-- ask What value of measured MIC is listed for N=C(N)NCCC[C@H](NC(=O)[C@H](CCCNC(=N)N)NC(=O)[C@@H](NC(=O)[C@H](CCCNC(=N)N)NC(=O)[C@@H](NC(=O)[C@H](CCCNC(=N)N)NC(=O)[C@@H](NC(=O)[C@H](CCCNC(=N)N)NC(=O)[C@@H](N)C(c1ccccc1)c1ccccc1)C(c1ccccc1)c1ccccc1)C(c1ccccc1)c1ccccc1)C(c1ccccc1)c1ccccc1)C(=O)O [(DipR)4R] (H-[Dip]R[Dip]R[Dip]R[Dip]RR-OH) ?
-- reply 1.6 µM

====

system: MRSA (ATCC BAA-1556); assay: microbe, parasite or virus in culture; assay type: cell-based, Methicillin-Resistant Staphylococcus aureus; conditions: ATCC BAA-1556, 24 h
Non-standard residues stand in square brackets, D forms with d. Residues, ends and D or L forms follow the SMILES beside them. Dip = N[C@H](C(=O)O)C(c1ccccc1)c1ccccc1
measuredAttribute: MIC (µM)
Kindly provide the numeric value in µM only, without the unit symbol.

-- ask // lookup MIC for N=C(N)NCCC[C@H](NC(=O)[C@@H](NC(=O)[C@H](CCCNC(=N)N)NC(=O)[C@@H](NC(=O)[C@H](CCCNC(=N)N)NC(=O)[C@@H](NC(=O)[C@H](CCCNC(=N)N)NC(=O)[C@@H](NC(=O)[C@H](CCCNC(=N)N)NC(=O)[C@@H](N)Cc1c[nH]c2ccccc12)C(c1ccccc1)c1ccccc1)C(c1ccccc1)c1ccccc1)C(c1ccccc1)c1ccccc1)C(c1ccccc1)c1ccccc1)C(=O)O [((DipR)4(WR))] (H-WR[Dip]R[Dip]R[Dip]R[Dip]R-OH)
-- reply 3.1
